Just for reference, PubChem BioAssay (NCI) is where these values come from.

Test system: T-47D breast
Experiment: NCI-60 one-dose screen, 48 h (100 = growth as untreated, 0 = no growth, -100 = all killed)
Conditions: 10 µM unless noted
Compounds without any hit were thinned out: in the full panel of roughly 83,000, 20% have a hit.
Categorize each record by its growth using bin 1 (below 50%), bin 2 (50% to below 90%), bin 3 (90% or more)

Observe how each entry below is paired with its result.
INSERT INTO assay_data (compound, test_target, assigned_class) VALUES
  ('CN1C(=O)N(C)C2C1NN=c1s/c(=C\c3c[nH]c4ccccc34)c(=O)n12 (centres undefined)', 'T-47D breast', 'bin 2'),
  ('COc1ccc(Br)c(/C=C2\SC(=Nc3ccc(O)cc3)NC2=O)c1', 'T-47D breast', 'bin 2'),
  ('CCOC(=O)c1cnc2ccc(Cl)cc2c1NCCCN(C)C', 'T-47D breast', 'bin 1'),
  ('CC(=S)NC(=O)C(=O)/C=C1/NC(=O)C(=O)S1', 'T-47D breast', 'bin 3');

Consider the record given below.
**Q:** Exercise: read the entry COc1cccc2c(=O)c3c(sc12)c(NCCCNCCO)nc1ccccc13 and state which class it falls under.
**A:** bin 2
